- System: 935938-334-R-J1-PDC complex spheroid viability;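 further: spheroids exposed to drugs for seven days before viability read; 100% = DMSO vehicle control wells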
- test.summary: Anticancer human tumor 935938-334-R-J1-PDC patient-derived small intestine adenocarcinoma cell line growth inhibition [POLQ]
- protocol.conditions: second compound 10 µM; first compound 0.001 µM; stronger effect = lower value
As shown below, each of these compounds has a reported viability, T/C value.
Write down the numeric answer in % and omit the unit.

Consider the worked cases shown below.
>  <compound>
Cn1ncnc1[C@H]1c2n[nH]c(=O)c3cc(F)cc(c23)N[C@@H]1c1ccc(F)cc1 + Cc1cccc(N(C)C(=O)C2C(O)CCN2c2nc(C)cc(C(F)(F)F)c2C#N)c1

>  <viability, T/C / %>
87.5

$$$$
>  <compound>
CC[C@@]1(O)C(=O)OCc2c1cc1n(c2=O)Cc2cc3c(CN(C)C)c(O)ccc3nc2-1 + COC1C(OC(N)=O)C(O)C(Oc2ccc3c(O)c(NC(=O)c4ccc(O)c(CC=C(C)C)c4)c(=O)oc3c2C)OC1(C)C

>  <viability, T/C / %>
133

$$$$

Now for the compound whose viability, T/C we want.
Q) // query viability, T/C value for entry CC[C@@]1(O)C(=O)OCc2c1cc1n(c2=O)Cc2cc3c(CN(C)C)c(O)ccc3nc2-1 + Nc1ccc(C#CCN(C(=O)Cc2ncc(C(F)(F)F)cc2C(F)(F)F)c2ccc(F)cc2)nn1
A) 117
